tested on: HEK293T cells; assay: Expression efficiency of capped luciferase mRNAs in HEK293T cells; type: cell-based; details: 6 h after transfection of capped luciferase mRNA into HEK293T cells; ratio to N-7413 (= 1)
# maps each entry to its Relative fluorescence reading

SMILES REPRESENTATION	Relative fluorescence reading
CO[C@@H]1[C@H](OP(=O)(O)OC[C@H]2O[C@@H](n3cnc4c(=O)[nH]c(N)nc43)[C@H](O)[C@@H]2O)[C@@H](COP(=O)(O)OP(=O)([O-])OP(=O)(O)OC[C@H]2O[C@@H](n3c[n+](C)c4c(=O)[nH]c(N)nc43)[C@H](O)[C@@H]2C(=O)N(C)C)O[C@H]1n1cnc2c(N)ncnc21	1.64
CCC(=O)N[C@H]1[C@@H](O)[C@H](n2c[n+](C)c3c(=O)[nH]c(N)nc32)O[C@@H]1COP(=O)(O)OP(=O)(O)OP(=O)(O)OC[C@H]1O[C@@H](n2cnc3c(N)ncnc32)[C@H](OC)[C@@H]1OP(=O)(O)OC[C@H]1O[C@@H](n2cnc3c(=O)[nH]c(N)nc32)[C@H](O)[C@@H]1O	1.60
